tested on: Escherichia coli TOP10; test: shrunken log2 fold change of peptide-encoding DNA abundance (4.5 h post-induction vs induction); higher = less antimicrobial activity (less host growth inhibition); settings: time post-induction: 4.5 h; library: site-saturation at positions 5, 18, 19, 20;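 also: peptides expressed intracellularly from a pBAD plasmid library in pooled LB shake-flask culture, induced with 0.3% L-arabinose, DNA abundance read by NGS, three biological replicates, DESeq2 with apeglm shrinkage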
The threshold is inclusive: shrunken log2 fold change of exactly -0.01 counts as met; values below receive not met.

>>> df
                biosequence  answer_label
 0  RRIRWRPPRLPRPRPRPYEGPRP       not met
 1  RRIRVRPPRLPRPRPRPAKRPRP           met
 2  RRIRSRPPRLPRPRPRPKMSPRP       not met
 3  RRIRLRPPRLPRPRPRPISDPRP       not met
 4  RRIRMRPPRLPRPRPRPSNWPRP           met
 5  RRIRARPPRLPRPRPRPHCLPRP       not met
 6  RRIRQRPPRLPRPRPRPGMPPRP       not met
 7  RRIRPRPPRLPRPRPRPDCMPRP           met
 8  RRIRCRPPRLPRPRPRPDCHPRP       not met
 9  RRIRMRPPRLPRPRPRPGVPPRP           met
10  RRIRCRPPRLPRPRPRPYQFPRP       not met
11  RRIRTRPPRLPRPRPRPSSPPRP       not met
12  RRIRCRPPRLPRPRPRPTIGPRP       not met
13  RRIRVRPPRLPRPRPRPHYLPRP           met
14  RRIRNRPPRLPRPRPRPNAMPRP           met
15  RRIRCRPPRLPRPRPRPFNRPRP       not met
16  RRIRGRPPRLPRPRPRPRRPPRP           met
17  RRIRVRPPRLPRPRPRPPLRPRP           met
18  RRIRGRPPRLPRPRPRPRHYPRP           met
19  RRIRFRPPRLPRPRPRPSWCPRP       not met
20  RRIRWRPPRLPRPRPRPVIHPRP           met
21  RRIRYRPPRLPRPRPRPEKDPRP           met
22  RRIRLRPPRLPRPRPRPVLGPRP           met
23  RRIRCRPPRLPRPRPRPFMMPRP       not met
24  RRIRFRPPRLPRPRPRPYSDPRP       not met
25  RRIRVRPPRLPRPRPRPVAYPRP       not met
26  RRIRQRPPRLPRPRPRPMRQPRP       not met
27  RRIRPRPPRLPRPRPRPIEFPRP       not met
28  RRIRLRPPRLPRPRPRPPSRPRP           met
29  RRIRMRPPRLPRPRPRPCYVPRP       not met
30  RRIRWRPPRLPRPRPRPMVHPRP           met
31  RRIRTRPPRLPRPRPRPYDFPRP       not met
